Target: Oxysterols receptor LXR-beta (Homo sapiens, UniProt P55055)
Sequence (P55055 whole entry): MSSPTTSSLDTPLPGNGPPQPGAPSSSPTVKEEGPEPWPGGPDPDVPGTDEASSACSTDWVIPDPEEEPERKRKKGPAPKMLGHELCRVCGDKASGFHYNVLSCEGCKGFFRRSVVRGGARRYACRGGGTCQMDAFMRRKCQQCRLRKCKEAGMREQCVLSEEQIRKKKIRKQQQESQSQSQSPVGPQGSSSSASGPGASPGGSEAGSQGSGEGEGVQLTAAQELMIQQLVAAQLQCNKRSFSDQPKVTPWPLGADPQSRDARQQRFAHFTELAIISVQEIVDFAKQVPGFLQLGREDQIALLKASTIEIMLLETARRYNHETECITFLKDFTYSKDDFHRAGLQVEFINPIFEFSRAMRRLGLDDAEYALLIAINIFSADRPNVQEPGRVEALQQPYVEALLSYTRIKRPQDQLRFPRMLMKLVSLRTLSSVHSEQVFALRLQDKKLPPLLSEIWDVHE
Assay: Agonist activity at human LXRbeta receptor after 1 hr by HTRF cofactor recruitment assay
Type: functional
MEASURED PARAMETER: log10 EC50 (log10 of the value in nM)
The common logarithm of EC50 in nM is what is listed.

Reported log10 EC50 ( `CC(C)(C)OC(=O)n1c(-c2ccc(CCNS(=O)(=O)c3cccs3)cc2)cc2ccccc21` ) = 1.76

log10 EC50 recorded for this compound, `CC(C)(C)OC(=O)n1c(-c2ccc(CCC#N)cc2)cc2ccccc21` , is 2.11

Record `CC(C)(C)OC(=O)n1c(-c2ccc(OCCO)cc2)cc2ccccc21` . Reported log10 EC50: 2.62

// field: log10 EC50; key: `CC(C)(C)OC(=O)n1c(-c2ccc(NS(=O)(=O)c3ccccc3)cc2)cc2ccccc21` ; value = 3.12

Record `CC(C)(C)OC(=O)n1c(-c2ccc(CNC(=O)c3ccccc3)cc2)cc2ccccc21` , field log10 EC50: 3.26

====

Could you please report measured EC50 for the items listed next?
Target: Oxysterols receptor LXR-beta (Homo sapiens, UniProt P55055)
Sequence (P55055 whole entry): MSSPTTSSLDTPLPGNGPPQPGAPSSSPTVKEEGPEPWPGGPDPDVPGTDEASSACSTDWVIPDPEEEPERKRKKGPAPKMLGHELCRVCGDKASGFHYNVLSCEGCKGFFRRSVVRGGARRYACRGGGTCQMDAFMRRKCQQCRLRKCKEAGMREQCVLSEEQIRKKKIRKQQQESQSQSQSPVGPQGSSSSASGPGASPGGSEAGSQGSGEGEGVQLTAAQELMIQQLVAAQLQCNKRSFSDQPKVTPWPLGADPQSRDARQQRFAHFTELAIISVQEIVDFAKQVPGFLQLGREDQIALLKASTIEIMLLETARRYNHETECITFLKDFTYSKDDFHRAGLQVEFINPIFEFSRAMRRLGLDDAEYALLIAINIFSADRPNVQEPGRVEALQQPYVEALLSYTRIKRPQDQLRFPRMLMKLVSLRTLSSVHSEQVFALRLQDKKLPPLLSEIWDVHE
Test: Agonist activity at human LXRbeta receptor transfected in COS7 cells after 16 hrs by reporter transactivation assay
Format: functional, cell-based, COS-7
Provide the measurement as a number trailed by its unit.

`N#CCCc1ccc(-c2cc3ccccc3n2C(=O)c2ccccc2)cc1` has a reported EC50 of 42 nM

Noted for `CC(C)(C)OC(=O)n1c(-c2ccc(CCC#N)cc2)cc2ccccc21` : its EC50 reads 576 nM

Summary for this compound, `CC(C)(C)OC(=O)n1c(-c2ccc(CCC(=O)O)cc2)cc2ccccc21` : EC50 is 4580 nM

Input `CC(C)(C)OC(=O)n1c(-c2ccc(CCC(N)=O)cc2)cc2ccccc21` . Output EC50: 285 nM

====

Target: Oxysterols receptor LXR-beta (Homo sapiens)
Assay: Agonist activity at human LXRbeta receptor after 1 hr by HTRF cofactor recruitment assay
Assay type: functional
Hi there, I'd appreciate the recorded EC50 for every entry that follows.
Give just the numeric value; µM need not be written.

Reported EC50 of `CC(C)(C)OC(=O)n1c(-c2cccc(CCNS(=O)(=O)c3ccccc3)c2)cc2ccccc21` : 0.42

Record `CC(C)(C)OC(=O)n1c(-c2ccc(CC#N)cc2)cc2ccccc21` , field EC50: 0.3

Looking up `CNC(=O)CCc1ccc(-c2cc3ccccc3n2C(=O)OC(C)(C)C)cc1` , I found its EC50 recorded as 0.49
